Molecular target: Endothelin receptor, ET-A/ET-B (Homo sapiens) (UniProt P24530+P25101)
Sequence (P24530 whole entry, looked up): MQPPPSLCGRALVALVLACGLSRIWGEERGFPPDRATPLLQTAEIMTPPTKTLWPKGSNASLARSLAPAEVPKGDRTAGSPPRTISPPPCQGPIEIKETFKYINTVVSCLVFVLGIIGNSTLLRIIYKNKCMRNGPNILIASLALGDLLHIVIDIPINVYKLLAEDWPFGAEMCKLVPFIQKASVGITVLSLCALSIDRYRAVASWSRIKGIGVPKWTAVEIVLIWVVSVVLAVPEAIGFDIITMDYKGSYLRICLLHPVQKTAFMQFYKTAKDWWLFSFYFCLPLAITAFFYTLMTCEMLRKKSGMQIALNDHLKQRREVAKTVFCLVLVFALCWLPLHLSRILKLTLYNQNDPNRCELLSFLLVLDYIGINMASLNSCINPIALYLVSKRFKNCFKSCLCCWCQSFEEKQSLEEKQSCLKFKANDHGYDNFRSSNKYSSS
Sequence (P25101 whole entry, looked up): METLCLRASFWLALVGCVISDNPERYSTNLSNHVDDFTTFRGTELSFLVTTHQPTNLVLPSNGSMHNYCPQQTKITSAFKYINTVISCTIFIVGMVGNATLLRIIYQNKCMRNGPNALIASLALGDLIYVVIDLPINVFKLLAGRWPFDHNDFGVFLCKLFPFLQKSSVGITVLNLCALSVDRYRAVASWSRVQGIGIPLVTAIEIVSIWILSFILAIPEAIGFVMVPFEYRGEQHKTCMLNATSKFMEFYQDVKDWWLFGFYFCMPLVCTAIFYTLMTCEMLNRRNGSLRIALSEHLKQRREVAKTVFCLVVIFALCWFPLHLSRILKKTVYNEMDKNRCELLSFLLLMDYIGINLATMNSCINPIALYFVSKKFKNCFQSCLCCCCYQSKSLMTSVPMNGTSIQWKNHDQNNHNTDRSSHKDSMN
Test: Selectivity for Endothelin A receptor compared to Endothelin B receptor.
Format: protein assay
Readout: Ratio

- Compound: "CCOc1ccc(CCOC(c2ccccc2)(c2ccccc2)C(Oc2nc(C)cc(C)n2)C(=O)O)cc1OC (stereo not drawn)"
  Experimental System: "Endothelin receptor, ET-A/ET-B (Homo sapiens) (UniProt P24530+P25101)"
  Test Result: 8
- Compound: "CCc1ccc(C(OCCc2ccc(OC)cc2)(c2ccc(CC)cc2)C(Oc2nc(C)cc(OC)n2)C(=O)O)cc1 (stereo not drawn)"
  Experimental System: "Endothelin receptor, ET-A/ET-B (Homo sapiens) (UniProt P24530+P25101)"
  Test Result: 1
- Compound: "CCc1ccc(C(OCCc2ccc(OC)c(OC)c2)(c2ccc(CC)cc2)C(Oc2nc(C)cc(OC)n2)C(=O)O)cc1 (stereo not drawn)"
  Experimental System: "Endothelin receptor, ET-A/ET-B (Homo sapiens) (UniProt P24530+P25101)"
  Test Result: 1

This collection of values is drawn from ChEMBL document CHEMBL1132335.
